- ASSAYED SYSTEM: T1, hemagglutinin (HA) of influenza B virus B/Lee/1940, on purified virus (influenza B virus (B/Lee/1940))
- T1 chain: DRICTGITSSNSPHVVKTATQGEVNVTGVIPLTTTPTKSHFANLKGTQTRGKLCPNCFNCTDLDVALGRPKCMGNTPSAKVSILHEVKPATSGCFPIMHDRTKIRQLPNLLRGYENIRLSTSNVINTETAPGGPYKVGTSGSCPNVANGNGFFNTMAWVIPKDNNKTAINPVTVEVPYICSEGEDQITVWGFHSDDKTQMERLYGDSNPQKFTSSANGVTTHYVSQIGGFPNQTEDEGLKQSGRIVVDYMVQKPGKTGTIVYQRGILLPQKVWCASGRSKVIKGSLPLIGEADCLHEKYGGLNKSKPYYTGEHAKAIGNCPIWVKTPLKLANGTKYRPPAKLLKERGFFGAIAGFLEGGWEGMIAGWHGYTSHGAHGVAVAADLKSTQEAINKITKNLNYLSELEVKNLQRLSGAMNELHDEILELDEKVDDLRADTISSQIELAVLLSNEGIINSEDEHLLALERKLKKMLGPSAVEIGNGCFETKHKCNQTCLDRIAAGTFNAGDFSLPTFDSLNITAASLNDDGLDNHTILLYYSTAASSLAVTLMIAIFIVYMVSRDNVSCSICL
- EXPERIMENT DESCRIPTION: ELISA

{"BINDER": "C11B10 (antibody, V domains shown) VH: EVQLQQSGPELVKPGASVKISCKASGYTFTGYNMHWVKQSHGKSLEWIGKIYPNNGVTGYNQEFRSKATLTVDNSSSTAYMELRSLTSEDSAIYFCVRSGAYYVNYLVPYFDYWGQGTTLTVSS VL: NIVLTQSPASLAVSPGQRATISCRASESIDIYGNSFMHWYQKKPGQPPKLLIYRASNLESGVPARFNGSGSRTDFTLTIDPVEGDDGATYYCQQNYEDPWTFGGGTKLEIK", "binding result": "no binding"}
{"BINDER": "C3G10-IgM (antibody, V domains shown) VH: EVQLQESGAELVKPGASVKLSCTASGFDIKDTYIHWVKQKPEKGLEWIGRIDPADGDTQSDPRFQGKATITSDTSSNTTYLHLSSLTSEDTAVYYCAKGGWYFDVWGAGTTVTVSS VL: HIVLTQSPASLAVSLGQRGTISCRASESVDSYGNSFMHWYQQRPGQPPKLLIYLASKLKCGVPARFSGSGSRTDFTLTNDPLEGGDGATYYCQQNNEVPRTFGGGTKLEIK", "binding result": "binds"}
{"BINDER": "C3G10-IgG (antibody, V domains shown) VH: EVQLQESGAELVKPGASVKLSCTASGFDIKDTYIHWVKQKPEKGLEWIGRIDPADGDTQSDPRFQGKATITSDTSSNTTYLHLSSLTSEDTAVYYCAKGGWYFDVWGAGTTVTVSS VL: HIVLTQSPASLAVSLGQRGTISCRASESVDSYGNSFMHWYQQRPGQPPKLLIYLASKLKCGVPARFSGSGSRTDFTLTNDPLEGGDGATYYCQQNNEVPRTFGGGTKLEIK", "binding result": "binds"}
{"BINDER": "C10H10-IgM (antibody, V domains shown) VH: EIQLQQSGPELVKPGASLKVSCKGFGYSFTDYKMYWVKQSHGKSLEWIGYIDPYNGGMRYNQKFKVKATLTVDMSSNTTFMHLNSLTFEDFAVYYCARGYGKNYAMEYWGQGTSVTVSS VL: NIVLTQSPASLAVSLGQRATISCRASESVDTYGQSFMHWYQQKPGQPPKLLIHLASNLESGVPARFNGSGSRTDFTLTIDPVEADDAATYYCQQNNEDPYTFGGGTKLEIK", "binding result": "no binding"}
{"BINDER": "C7G6-IgM (antibody, V domains shown) VH: EVQLQQSGPELVKPGASVKISCKASGYTFTDYNMHWVKQSLGKSLEWIGYIYPNNGGTGYNQKFESKATLTADNSSSTAYMELRTLTSEDSAVYYCVRSGAYYFNYLVPYFDYWGQGTTLTVSS VL: NIVLTQSPASLAVSLGQRGTISCRASESVDIYGNSFMHWYQQKPGQPPKLLIYLASKLECGVCARFNGSGCRTDFTLAIDPVEGDDGATYYCQQNYEDPWTFGGGTKLEIK", "binding result": "binds"}
